# pIC50 listing for each entry below
# Test system: A2780 ovarian carcinoma cells
# assay_protocol: MTT in vitro cytotoxicity, A2780
# Format: cell-based, human
# measurement_conditions: 24 h treatment, read-out: IC50±S.E., A2780
To interpret pIC50, take it as minus log10 of a concentration measured in moles per litre.

# molecule, pIC50
measured = [
    ("N.N.[Cl][Pt][Cl] [cisplatin, reference compound]", 4.94),
    ("[Au][n]1ccc2ncnc(OCCc3ccccc3)c21.c1ccc(P(c2ccccc2)c2ccccc2)cc1 [complex 5]", 5.36),
    ("[Au][n]1ccc2ncnc(OCc3ccccc3)c21.c1ccc(P(c2ccccc2)c2ccccc2)cc1 [complex 4]", 5.34),
]

# return recorded pIC50 for entry CC(C)Oc1ncnc2cc[n]([Au])c12.c1ccc(P(c2ccccc2)c2ccccc2)cc1 [complex 2, [Au(L2)(PPh3)]]
5.40

Retrieve pIC50 measured for CCOc1ncnc2cc[n]([Au])c12.c1ccc(P(c2ccccc2)c2ccccc2)cc1 [complex 1] and print it.
5.32

Complete the entry with pIC50 for [Au][n]1ccc2ncnc(OCC3CCCO3)c21.c1ccc(P(c2ccccc2)c2ccccc2)cc1 [complex 3]
5.34
